Tested on: OVCAR-4
assay: NCI tumour cell line growth inhibition, 48 h
Activity calls are given as the source filed them. Rule as the data show it: active = GI50 up to about 1.1 µM and inactive = higher.
Assignment: determine reported GI50 for the given compounds.

### Prompt Record request: GI50 value, item CCOC(=O)CC1(O)CCCCC1(Sc1ccc(C)cc1)Sc1ccc(C)cc1 (stereo not drawn)
### Response 47.8 µM (inactive)

### Prompt Then `N#Cc1c(-c2ccc(Cl)cc2)c(C#N)c(=O)n(NS(=O)(=O)c2ccccc2)c1S` ?
### Response 56.6 µM (inactive)

### Prompt Then `CC(C)(C)C1=NC(=S)SC2=NC(=O)C3(NN21)c1ccccc1-c1ccccc13` ?
### Response 7.98 µM (inactive)

### Prompt Then `O=[N+]([O-])c1cc(-c2nc(-c3ccccc3)c(-c3ccccc3)[nH]2)c(O)c([N+](=O)[O-])c1` ?
### Response 34 µM (inactive)

### Prompt Then `N#CCCN(CCC#N)c1ccc(/C=C2\N=C(c3ccccc3)N(c3ccc(Cl)cc3)C2=O)cc1` ?
### Response > 100 µM (inactive)

### Prompt Then Nc1ccc(C(=O)NN2C(=O)[C@H](Cl)C2c2ccc(Cl)cc2)cc1 (stereo partly drawn) ?
### Response 0.615 µM (active)

### Prompt Then COc1ccc(C2N(c3ccc(C)c(N=C=O)c3)C(=O)N3C(c4ccc(OC)cc4)N(c4ccc(C)c(N=C=O)c4)C(=O)N23)cc1 (stereo not drawn) ?
### Response > 100 µM (inactive)

### Prompt Then `CN(C)CCNC(=O)c1cccc2[nH]c(-c3ccc(Cl)cc3)nc12` ?
### Response 7.24 µM (inactive)

### Prompt Then `Nc1nc(N)c2c(n1)NC(=O)c1c(c3ccccc3n1Cc1ccc(Cl)cc1)C2` ?
### Response 18.5 µM (inactive)

### Prompt Then `CO[C@H]1C[C@@H]2CC[C@@H](C)[C@@](O)(O2)C(=O)C(=O)N2CCCC[C@H]2C(=O)O[C@H]([C@H](C)C[C@@H]2CC[C@@H](O)[C@H](OC)C2)CC(=O)[C@H](C)C=C(C)[C@@H](O)[C@@H](OC)C(=O)[C@H](C)C[C@H](C)/C=C/C=C/C=C1C` ?
### Response < 0.01 µM (active)

### Prompt Then `Cc1c(C(=O)CSc2nc3ccccc3[nH]2)c(=O)n(-c2ccccc2)n1C` ?
### Response > 100 µM (inactive)

### Prompt Then N#CC1=C(N)N2C(=O)/C(=C/c3ccccc3)SC2C(c2nc3ccccc3[nH]2)=C1c1ccccc1 (stereo not drawn) ?
### Response 2.42 µM (inactive)

### Prompt Then `CC1(C)COC(/C=C/C2=NC(C)(C)CO2)=N1` ?
### Response 24.7 µM (inactive)

### Prompt Then `COc1ccc(/C=C2\C(=O)N(C(=O)c3ccc(NC(C)=O)cc3)N=C2C)cc1OC` ?
### Response > 100 µM (inactive)

### Prompt Then `C=CS(=O)(=O)c1c2cc(OC)ccc2nc2ccc(OC)cc12` ?
### Response 13.1 µM (inactive)

### Prompt Then Cc1cc(O)c2c(c1)C(=O)C(c1c(C)cc3c(c1O)C(=O)C1OC1C3=O)=CC2=O (stereo not drawn) ?
### Response 3.33 µM (inactive)

### Prompt Then COC(=O)C1CCC(=O)N1C(=O)Cc1ccc(OC)cc1 (stereo not drawn) ?
### Response > 100 µM (inactive)

### Prompt Then CCOC(=O)CNC1C(NC(C)=O)C(OC)OC2COC(c3ccccc3)OC21 (stereo not drawn) ?
### Response > 100 µM (inactive)
